System Under Test: GK (glucokinase, residues 12-465) (Homo sapiens)
Construct: I.D. No. 1 corresponds to residues 12-465 of glucokinase; made in house; host or cells: DH10b-T1r E. coli
Sequence (P35557 with tags, fused parts or gaps isoform P35557-2): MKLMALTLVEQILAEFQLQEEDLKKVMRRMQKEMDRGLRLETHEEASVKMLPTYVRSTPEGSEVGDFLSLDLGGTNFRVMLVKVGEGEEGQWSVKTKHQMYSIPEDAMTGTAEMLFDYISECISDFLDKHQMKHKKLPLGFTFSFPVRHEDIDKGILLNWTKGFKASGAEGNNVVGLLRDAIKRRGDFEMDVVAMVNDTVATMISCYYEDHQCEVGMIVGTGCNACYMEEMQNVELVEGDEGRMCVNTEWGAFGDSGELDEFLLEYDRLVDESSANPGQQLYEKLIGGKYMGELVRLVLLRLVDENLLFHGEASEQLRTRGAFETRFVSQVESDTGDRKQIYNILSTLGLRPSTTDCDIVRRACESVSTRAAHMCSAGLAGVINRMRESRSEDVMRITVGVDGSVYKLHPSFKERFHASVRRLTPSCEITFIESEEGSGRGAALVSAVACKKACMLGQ
Procedure Details: enzymatic glucokinase activity assay (ATP consumption, KinaseGlo luminescence)
Assay type: biochemical
Reported Conditions: calculated maximal gain in GK enzyme activity at a saturating concentration of the compound; 5 μM ATP, 5 mM Glucose; reported as bins; read-out: % ACTmax
Listing of recorded Emax by entry.

Guide cases for Emax, answers given:
- O=C1CCC(CC(C(=O)Nc2ncc(F)s2)n2cc(S(=O)(=O)C3CC3)cn2)C1 (stereo not shown) [Compound 50]: ≤ 90%
- O=C(Nc1ncc(Cl)s1)C(CC1CCOCC1)n1ncc2ccc(S(=O)(=O)C3CC3)cc21 (stereo not shown) [Compound 60]: ≤ 90%
- Cn1ccc(NC(=O)[C@@H](CC2CCOCC2)n2ncc3c(S(=O)(=O)C4CC4)c(F)ccc32)n1 [Compound 166]: 90 to 100%

We next turn to a different molecule, shown below.
Problem: Which Emax reading was recorded for the molecule Cn1ccc(NC(=O)[C@@H](CC2CCOCC2)n2ncc3c(S(=O)(=O)C4CC4)cc(C#N)cc32)n1 [Compound 106] ?
Result: 90 to 100%
